# assayed.target: human insulin-like growth factor-II (IGF-II) (human, UniProt P01344 25-91)
# procedure.details: cell-based or functional assay
reported.metric: EC50 (nM), n = 2, IGF-II pTYR, BxPC3 cells
Give bare numbers, in nM.

Would you please look over these solved cases?
Req: Annotate the binder mAb 7.234.2 (antibody, V domains shown, Kappa light chain (L5/JK3); also called 7.234.1; 7_234_1) VH: QLQLQESGPGLVKPSETLSLTCTVSGGSINSSSNYWGWIRQPPGKGLAWIGGIYYSGSTYYNPSLRSRVTMSVDTSKNQFSLKLSSVTAADTAVYYCARQRGHSSGWWYFDLWGRGTLVTVSS VL: DIQMTQSPSSVSASVGDRVTITCRASRGISSWLAWYQQRPGKAPKLLIYTASSLQSGVPSRFSGSGSGTDFTLTISSLQPEDFATYYCQQANSFPFTFGPGTKVDIKR with its measured EC50 (nM), n = 2, IGF-II pTYR, BxPC3 cells.
Resp: 2.3

Req: Dear colleague, please send me the reported EC50 (nM), n = 2, IGF-II pTYR, BxPC3 cells for mAb 7.158.2 (antibody, V domains shown, Kappa light chain (L5/JK3); also called 7.158.1; 7_158_1) VH: QLQLQESGPGLVKPSETLSLTCTVSGGSIRSSSYYWGWIRQPPGKGLEWIGGIYYSGSTYYNPSLKSRVTMSVDTSKNQFSLKLSSVTAADTAVYYCARQRGHSSGWWYFDLWGRGTLVTVSS VL: DIQMTQSPSSVSASVGDSVTITCRASQGISSYLAWYQQKPGKAPKLLIYAASSLQSGVPSRFSGNGSGTDFTLTISSLQPEDFATYYCQQANNFPFTFGPGTKVDIKR when you can.
Resp: 4.2

Req: Tell us which EC50 (nM), n = 2, IGF-II pTYR, BxPC3 cells value is on record for mAb 7.34.1 (antibody, V domains shown, Fully human XenoMouse hybridoma mAb, lambda light chain (V1-13/JL2); also called ATCC PTA-7423) VH: QVQLQESGPGLVKPSETLSLTCTVSGGSISSYYWSWIRQPPGRGLEWIGYFFYSGYTNYNPSLKSRVTMSVDTSKNQFSLKLSSVTAADTAVYYCACITGTTKGGMDVWGQGATVTVSS VL: QSVLTQAPSVSGAPGQRVTISCTGRSSNIGAGYDVHWYQQFPGTAPKLLIYGNSNRPSGVPDRFSGSKSGTSASLAITGLQAEDEADYYCQSYDSSLSGSVFGGGTKLTVLG
Resp: 1.9

***
Req: Supply recorded EC50 (nM), n = 2, IGF-II pTYR, BxPC3 cells for mAb 7.159.2 (antibody, V domains shown, Fully human XenoMouse hybridoma mAb, lambda light chain (V1-19/JL2); Sister clones 7.159.1 and 7.159.2 are said to be identical; also called 7.159.1; 7_159_1) VH: QVQLVQSGAEVKKPGASVKVSCKASGYTFTSYDINWVRQATGQGLEWMGWMNPNSGNTGYAQKFQGRVTMTRNTSISTAYMELSSLRSEDTAVYYCARDPYYYYYGMDVWGQGTTVTVSS VL: QSVLTQPPSVSAAPGQKVTISCSGSSSNIENNHVSWYQQLPGTAPKLLIYDNNKRPSGIPDRFSGSKSGTSATLGITGLQTGDEADYYCETWDTSLSAGRVFGGGTKLTVLG here.
Resp: 1.7
